protocolText: MM1S cell viability effects, profiling panel, calcein-AM fluorescence, 48 h, basal (AID 1165);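 further: viability of MM1S multiple myeloma cells under basal unstimulated conditions; test concentration not given here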
testParameters: higher = more signal
Here the recorded z-score is given for each entry.
Simply state the number, no unit and no words.

// known answers, use as guide
C=CC[C@@H]1C=C[C@H](ON=C(C)CCN2CCc3nc(-c4ccccc4)c(-c4ccccc4)cc3C2)[C@@H](CO)O1    -2.36
O=C(C=Cc1ccc2c(c1)OCO2)c1ccc(F)cc1    -3.26
O=C1C[C@@H](O)[C@@H](O)[C@@H]2[C@@H]3C(=O)N(C[C@@H]4CCCO4)C(=O)[C@@H]3CC[C@H]12    0.136

Report z-score for CCOC(=O)NN=C1C[C@@H](O)[C@@H](O)[C@@H]2[C@@H]3C(=O)N(Cc4ccc5c(c4)OCO5)C(=O)[C@@H]3CC[C@H]12 please.
0.457
